System: CAKI-1 renal
experiment_description: NCI tumour cell line growth inhibition, 48 h
measured_endpoint: TGI

| molecule | result |
| --- | --- |
| COC(=O)C1=CC[C@@H]2C(C(=O)O)=CO[C@@H](OC3OC(CO)C(O)C(O)C3O)[C@H]12 (stereo partly drawn) | > 300 µM |
| CC(=O)Nc1ccc2c(C)c3c4ccccc4n(C)c3nc2n1 | > 100 µM |
| COc1c(O)ccc2c1CN1CCc3cc4c(cc3C1C2)OCO4 (stereo not drawn) | > 100 µM |

---

Test system: SN12C renal
experiment_description: NCI tumour cell line growth inhibition, 48 h; in the data active = GI50 below about 0.43 µM; inactive = the rest
Labels: active, inactive

| compound | qualitative_label |
| --- | --- |
| O=C(NC(=S)Nc1ccc(Cl)cc1)c1ccccc1 | inactive |
| CCOC(=O)Oc1c(OC)cc(C(=O)O[C@@H]2C[C@@H]3CN4CCc5c([nH]c6cc(OC)ccc56)[C@H]4C[C@@H]3[C@H](C(=O)OC)[C@H]2OC)cc1OC | inactive |
| O=C(NOCC1CC1)c1ccc(F)c(F)c1Nc1ccc(I)cc1Cl | inactive |
| O=[N+]([O-])/C=C/c1c[nH]c2ccccc12 | inactive |
| COc1cc2c(/C=C3/C(=O)Nc4ccccc43)c(Cl)n(Cc3ccccc3[N+](=O)[O-])c2cc1C | inactive |
| O=C1CCC2(C=C(Br)C(=O)C(Br)=C2)O1 | inactive |
| CC(NNC(=S)N1CCCCCC1)c1ccc2ccccc2n1 (stereo not drawn) | inactive |
| O=C([CH-]C(=O)c1ccccc1)c1ccccc1.O=C([CH-]C(=O)c1ccccc1)c1ccccc1.[Nd+3].[OH-].[OH3+] | inactive |
| C[C@H]1CCC/C=C/[C@@H]2C[C@H](O)C[C@H]2[C@H](O)[C@@H](S(=O)CCN(C)C)CC(=O)O1 (stereo partly drawn) | active |
| O=C(C(Br)Br)C(Br)C(Br)c1ccccc1 (stereo not drawn) | inactive |
| N=C(N)CCCCCCCCC(=N)N | inactive |
| COc1ccc(-c2nc(-c3ccccc3)c(-c3ccccc3)n2C2CC2)cc1OC1CCCC1 | inactive |
| O=C(Nc1ccc(Cl)cc1)c1cc2ccccc2cc1O | inactive |
| S=C(Nc1ccc(Cl)cc1)Nc1ccc(-c2nc3ccccc3[nH]2)cc1 | inactive |
| O=c1cc(-c2ccccc2)nc2n1CCN2Cc1ccccc1 | inactive |
| O=C1C=Cc2ccccc2/C1=C/c1[nH]c(=O)[nH]c1O | inactive |
| O=C1c2ccccc2-c2c1c1ccccc1c(=O)n2CCCN1CCOCC1 | inactive |
| Cc1cc2c(F)c(Oc3ncnn4cc(OC[C@@H](C)OC(=O)[C@H](C)N)c(C)c34)ccc2[nH]1 | inactive |
